- Test system: specific receptor sites on BASM or BAE cells
- Protocol description: competitive displacement receptor binding assay (Tables IA-IE)
- Parameters: species or system bovine
- Experimental context: statements in words on Tables IA-IE; displacement of [^125I]-rANP(126-150)
Where a SMILES comes first, the peptide text is derived from it. [ ]: non-standard residue; d: D form.
Recorded endpoint: receptor binding affinity (Ki(app))

>>> measured_result("CC[C@H](C)[C@H](NC(=O)[C@H](CCCNC(=N)N)NC(=O)[C@@H](CC(=O)O)NC(=O)[C@@H](NC(=O)[C@H](CCCNC(=N)N)NC(=O)CNC(=O)CNC(=O)[C@H](Cc1ccccc1)NC(=O)[C@H](C)N)[C@@H](C)CC)C(=O)NCC(=O)N[C@@H](C)C(N)=O [AP303, A-F-G-G-R-I-[D-D]-R-I-G-A-NH,] (H-AFGGRI[dD]RIGA-NH2)")
"inactive"
>>> measured_result("CC[C@H](C)[C@H](NC(=O)[C@H](CCCNC(=N)N)NC(=O)[C@H](CC(=O)O)NC(=O)[C@@H](NC(=O)[C@@H](CCCNC(=N)N)NC(=O)CNC(=O)CNC(=O)[C@H](Cc1ccccc1)NC(=O)[C@H](C)N)[C@@H](C)CC)C(=O)NCC(=O)N[C@@H](C)C(N)=O [AP301, A-F-G-G-[D-R]-I-D-R-I-G-A-NH2] (H-AFGG[dR]IDRIGA-NH2)")
"inactive"
